target: synthetic Aβ 1-40 (Homo sapiens, UniProt P05067); construct: synthetic Aβ 1-40; experiment: Competition binding assay ([3H]PIB as radioligand); conditions: 2.7 nM [3H]PIB radioligand, phosphate buffer pH 7.5, 30 min room temperature
Sequence (P05067 672-711 limits assumed): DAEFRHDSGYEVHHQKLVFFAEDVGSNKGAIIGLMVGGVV
MEASURED_PROPERTY: IC50 (nM)

[
  {
    "ENTRY_SMILES": "COc1ccc2oc(-c3ccc(C(N)=O)cn3)cc2c1",
    "MEASURED_PROPERTY": "IC50",
    "UNIT_OF_MEASURE": "nM",
    "REPORTED_MEASUREMENT": 33
  }
]

P: CNc1ccc(-c2cc3cc(O)ccc3o2)cn1
Q: COc1ccc2nc(-c3cc4ccccc4o3)cn2c1
Compare the recorded IC50 of P and Q ; state which is larger. Please indicate the selected item by its label.
Q
